- system.under.test: Recombinant human Plk-1 (6×His) (Homo sapiens)
- Construct: 6xHis; made in house; host or cells: baculovirus-infected Hi5 insect cells
- Sequence (P53350 whole entry): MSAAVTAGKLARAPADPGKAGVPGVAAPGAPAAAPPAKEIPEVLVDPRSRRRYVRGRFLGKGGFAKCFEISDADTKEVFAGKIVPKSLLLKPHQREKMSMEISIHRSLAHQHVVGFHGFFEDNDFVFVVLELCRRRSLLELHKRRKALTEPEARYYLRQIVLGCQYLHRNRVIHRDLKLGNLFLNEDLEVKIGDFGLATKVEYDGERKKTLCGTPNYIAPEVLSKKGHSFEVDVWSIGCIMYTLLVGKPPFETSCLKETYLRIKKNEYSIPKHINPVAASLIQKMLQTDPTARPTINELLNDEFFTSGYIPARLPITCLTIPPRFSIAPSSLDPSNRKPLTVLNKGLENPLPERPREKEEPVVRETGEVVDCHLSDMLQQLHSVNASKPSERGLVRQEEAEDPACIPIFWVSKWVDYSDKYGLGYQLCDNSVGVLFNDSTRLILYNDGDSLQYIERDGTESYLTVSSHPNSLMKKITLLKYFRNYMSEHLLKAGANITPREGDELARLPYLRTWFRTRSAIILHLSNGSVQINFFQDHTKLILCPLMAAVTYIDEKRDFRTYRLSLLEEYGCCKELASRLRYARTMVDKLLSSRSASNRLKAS
- experimental.details: PLK enzyme assay
- Format: biochemical
- run.conditions: Table 1; read-out: PLK IC50
pIC50: −log10 of the molar value.
Could you label it YES if measured pIC50 is 6 or higher, and NO otherwise?

Worked cases, answers included:
CCOC(=O)C(C#N)=c1sc(=CNc2ccc(NC(=O)COC)cc2)c(=O)n1CC [Example 19] :: YES
CCOC(=O)C(C#N)=c1sc(=CNc2ccccc2F)c(=O)n1CC (mixture of isomers) [Example 36] :: YES

Shift focus to the following entry.
Does CCn1c(=O)c(=CNc2ccccc2)s/c1=C(/C#N)C(=O)NCc1ccco1 [Example 223] have a reported pIC50 of at least 6?
NO

From: patent US20070037862A1
